The reader will find reported IC50 values listed item by item below.
Molecular target: CDK9/Cyclin T1 complex (Homo sapiens, UniProt P50750)
Sequence (P50750 whole entry): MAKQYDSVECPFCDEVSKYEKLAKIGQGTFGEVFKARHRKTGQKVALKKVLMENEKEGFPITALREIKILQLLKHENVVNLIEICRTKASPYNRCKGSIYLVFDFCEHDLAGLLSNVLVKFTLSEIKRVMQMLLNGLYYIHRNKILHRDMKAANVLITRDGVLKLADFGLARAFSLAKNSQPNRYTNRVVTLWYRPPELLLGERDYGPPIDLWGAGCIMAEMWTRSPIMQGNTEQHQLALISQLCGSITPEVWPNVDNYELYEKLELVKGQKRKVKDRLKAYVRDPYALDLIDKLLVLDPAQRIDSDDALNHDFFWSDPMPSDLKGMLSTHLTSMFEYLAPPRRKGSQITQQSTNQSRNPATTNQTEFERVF
Sequence (O60563 whole entry partner): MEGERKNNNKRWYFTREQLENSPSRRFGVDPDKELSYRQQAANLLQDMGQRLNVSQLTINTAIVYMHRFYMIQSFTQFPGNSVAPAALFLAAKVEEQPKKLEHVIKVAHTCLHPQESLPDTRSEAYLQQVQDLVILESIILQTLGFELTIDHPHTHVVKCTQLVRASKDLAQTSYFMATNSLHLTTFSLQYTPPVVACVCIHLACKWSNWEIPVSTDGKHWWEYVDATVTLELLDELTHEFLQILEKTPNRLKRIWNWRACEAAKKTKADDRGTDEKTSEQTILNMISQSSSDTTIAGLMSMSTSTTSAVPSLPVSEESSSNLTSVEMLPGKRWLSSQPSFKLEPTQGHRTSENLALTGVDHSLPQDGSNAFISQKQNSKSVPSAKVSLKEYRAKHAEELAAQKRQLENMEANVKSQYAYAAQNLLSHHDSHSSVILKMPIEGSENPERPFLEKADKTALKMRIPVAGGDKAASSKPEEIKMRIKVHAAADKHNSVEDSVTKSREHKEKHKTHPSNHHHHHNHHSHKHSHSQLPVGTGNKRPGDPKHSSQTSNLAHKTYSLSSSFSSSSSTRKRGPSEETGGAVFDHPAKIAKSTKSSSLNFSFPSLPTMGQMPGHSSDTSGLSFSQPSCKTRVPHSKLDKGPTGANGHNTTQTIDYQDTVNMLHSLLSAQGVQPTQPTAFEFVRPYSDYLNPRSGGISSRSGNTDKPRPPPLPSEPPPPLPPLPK
Experiment: CDK9 kinase inhibition assay (Caliper/LabChip EZ Reader)

A selection of reference data follows.
INSERT INTO assay_data (molecule, observed_result) VALUES
  ('Cc1noc(C)c1-c1ccc2c(-c3nc(NC4CC[C@@H]4N4CCCC4)ncc3C(F)(F)F)c[nH]c2n1 (stereo in doubt)', '> 500 nM'),
  ('N#Cc1ccc2c(-c3nc(N[C@H]4CCC[C@@H]4N4CCCC4)ncc3C(F)(F)F)c[nH]c2c1', '> 500 nM'),
  ('Cc1noc(C)c1-c1ccc2c(-c3nc(N[C@H]4CCC[C@@H]4N4CC(O)C4)ncc3C(F)(F)F)c[nH]c2n1', '> 500 nM'),
  ('CC(=O)N[C@H]1CCC[C@@H]1Nc1ncc(C(F)(F)F)c(-c2c[nH]c3cc(C#N)ccc23)n1', '> 500 nM'),
  ('Cc1noc(C)c1-c1ccc2c(-c3nc(N[C@H]4C[C@H]5CC[N@](CC5)C4)ncc3C(F)(F)F)c[nH]c2n1', '> 500 nM');

Next molecule, please.
Task item: Check the records and state IC50 for `N#Cc1ccc2c(-c3nc(N[C@H]4CCC[C@@H]4N4CCOCC4)ncc3C(F)(F)F)c[nH]c2c1`
Reply: > 500 nM
